Test system: metabotropic glutamate receptors
Test method notes: displacement of 1S,3R-ACPD-sensitive [3H]glutamate binding to rat forebrain crude membranes
Condition info: 100 μM, mixture of enantiomers unless otherwise noted
Property: Percent displacement of L-[3H]Glu (%)

Use the examples below as a reference point.
NC(CC(Sc1ccccc1)C(=O)O)C(=O)O (stereo not shown) [Compound 2, 4-Benzenethioglutamic Acid]	77.1
N[C@@H](CC(Oc1ccc(CCCCCCc2ccccc2)cc1)C(=O)O)C(=O)O (stereo partly shown) [Compound 16]	76.9
N[C@@H](CC(Oc1ccc2oc3ccccc3c2c1)C(=O)O)C(=O)O (stereo partly shown) [Compound 31, 4-(2-Dibenzofuranoxy)glutamic Acid]	99.4

(I) N[C@@H](CC(Oc1ccc(CCCCc2ccccc2)cc1)C(=O)O)C(=O)O (stereo partly shown) [Compound 51]
(II) CC(C)(C)CC(C)(C)c1ccc(OC(C[C@H](N)C(=O)O)C(=O)O)cc1 (stereo partly shown) [Compound 8]
Exercise: Between the two listed entries I and II , which has its Percent displacement of L-[3H]Glu at the higher number? In your reply, give the label of the chosen option.
Solution: I
